Values compiled from patent US8822451B2.

Target: […]F508-CFTR (Homo sapiens, UniProt P13569, DEL508-508)
Sequence (P13569 with tags, fused parts or gaps DEL508-508): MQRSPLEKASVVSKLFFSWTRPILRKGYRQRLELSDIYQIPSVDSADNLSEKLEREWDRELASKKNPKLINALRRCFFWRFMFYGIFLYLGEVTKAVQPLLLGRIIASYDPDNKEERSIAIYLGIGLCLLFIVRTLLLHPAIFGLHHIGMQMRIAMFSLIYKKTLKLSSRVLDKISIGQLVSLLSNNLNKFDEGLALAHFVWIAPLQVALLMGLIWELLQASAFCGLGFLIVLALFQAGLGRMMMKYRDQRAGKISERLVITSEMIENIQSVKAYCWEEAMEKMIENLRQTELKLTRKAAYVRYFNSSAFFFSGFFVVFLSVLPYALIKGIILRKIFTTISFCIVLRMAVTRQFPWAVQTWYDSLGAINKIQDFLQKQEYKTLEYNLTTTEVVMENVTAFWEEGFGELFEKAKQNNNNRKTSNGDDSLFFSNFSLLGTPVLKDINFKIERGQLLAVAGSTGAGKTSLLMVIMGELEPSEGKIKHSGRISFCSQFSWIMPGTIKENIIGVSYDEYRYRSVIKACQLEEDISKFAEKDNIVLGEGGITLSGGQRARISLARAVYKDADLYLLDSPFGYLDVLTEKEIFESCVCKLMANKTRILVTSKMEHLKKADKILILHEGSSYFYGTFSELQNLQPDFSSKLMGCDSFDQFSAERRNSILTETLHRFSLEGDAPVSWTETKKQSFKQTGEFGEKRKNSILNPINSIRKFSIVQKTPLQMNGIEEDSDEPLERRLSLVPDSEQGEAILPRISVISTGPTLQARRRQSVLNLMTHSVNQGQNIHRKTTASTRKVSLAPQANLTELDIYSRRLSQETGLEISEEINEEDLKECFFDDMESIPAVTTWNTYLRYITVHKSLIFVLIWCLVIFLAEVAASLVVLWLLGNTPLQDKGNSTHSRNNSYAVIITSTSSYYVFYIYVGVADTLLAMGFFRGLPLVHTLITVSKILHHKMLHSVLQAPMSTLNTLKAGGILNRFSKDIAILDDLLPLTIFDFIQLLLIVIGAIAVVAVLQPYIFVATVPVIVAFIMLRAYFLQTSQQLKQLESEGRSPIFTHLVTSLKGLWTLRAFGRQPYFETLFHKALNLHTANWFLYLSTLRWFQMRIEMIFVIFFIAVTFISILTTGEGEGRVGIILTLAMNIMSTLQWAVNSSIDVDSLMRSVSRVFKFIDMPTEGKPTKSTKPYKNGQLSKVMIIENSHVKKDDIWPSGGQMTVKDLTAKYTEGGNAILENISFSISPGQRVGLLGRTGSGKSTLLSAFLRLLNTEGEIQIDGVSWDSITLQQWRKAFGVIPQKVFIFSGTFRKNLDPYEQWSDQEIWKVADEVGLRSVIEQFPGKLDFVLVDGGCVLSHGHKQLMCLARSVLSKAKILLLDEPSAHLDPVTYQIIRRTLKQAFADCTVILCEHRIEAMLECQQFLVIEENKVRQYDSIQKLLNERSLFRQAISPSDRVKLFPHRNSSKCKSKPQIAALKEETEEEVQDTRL
Experiment: Assay results of Table 3: ΔF508-CFTR modulation, membrane potential optical assay (assay format not stated)
Settings: potency range; NIH3T3 mouse fibroblasts stably expressing […]F508-CFTR (optical assays)
pEC50: −log10 of the molar value.
Each item that follows carries a reported pEC50.

CC(C)CN(C)c1nc(C(N)=O)cc(-c2ccccc2)n1 [Compound 159] ... 5.30 to 6.00
C=C(C)CN(CC)c1nc(C(N)=O)cc(-c2ccccc2)n1 [Compound 188] ... > 6.00
COc1cccc(-c2cc(C(N)=O)nc(NCC3CCCO3)n2)c1 (centres unmarked) [Compound 80] ... < 5.30
CCOc1ccccc1-c1cc(C(N)=O)nc(N2CCCCC2)n1 [Compound 127] ... 5.30 to 6.00
CCN(CC)c1nc(C(N)=O)cc(-c2cc(C(C)C)ccc2OC)n1 [Compound 76] ... > 6.00

Lab note: measured pEC50 of CCN(CC)c1nc(C(N)=O)cc(-c2cc(Cl)ccc2Cl)n1 [Compound 225] was > 6.00

The compound listed as CCN(CC)c1nc(C(N)=O)cc(-c2cc(F)ccc2F)n1 [Compound 163] has a reported pEC50 of > 6.00

Reported pEC50 of NC(=O)c1cc(-c2ccc(Cl)cc2Cl)nc(N2CCCCC2)n1 [Compound 106] : 5.30 to 6.00

NC(=O)c1cc(-c2cc(F)cc(F)c2)nc(N2CCCCC2)n1 [Compound 219] has a reported pEC50 of 5.30 to 6.00

For reference, reported pEC50 for CCCCN(CC)c1nc(C(N)=O)cc(-c2ccccc2)n1 [Compound 121] stands at 5.30 to 6.00

---

Molecular target: […]F508-CFTR (Homo sapiens, UniProt P13569, DEL508-508)
Assay: Assay results of Table 3: ΔF508-CFTR modulation, membrane potential optical assay (assay format not stated)
Details: potency range; NIH3T3 mouse fibroblasts stably expressing […]F508-CFTR (optical assays)
Measurement label: EC50

Worked examples, 8 compounds total:
C=CCNc1nc(C(N)=O)cc(-c2cccc(OC)c2)n1 ... > 5 µM
NC(=O)c1cc(-c2ccccc2)nc(N2CC=CCC2)n1 ... 1 to 5 µM
O=C(c1cc(-c2ccccc2)nc(N2CC=CC2)n1)N1CC=CC1 ... > 5 µM
NC(=O)c1cc(-c2cc(Cl)cc(Cl)c2)nc(N2CCCCC2)n1 ... 1 to 5 µM
NC(=O)c1cc(-c2ccc(Cl)c(Cl)c2)nc(N2CCCCC2)n1 ... 1 to 5 µM
CCN(CC)C(=O)c1cc(-c2ccccc2)nc(N(CC)CC)n1 ... 1 to 5 µM
CCN(CC)c1nc(C(N)=O)cc(-c2ccc(S(=O)(=O)CC)cc2)n1 ... > 5 µM
CNC(=O)c1cc(-c2ccccc2)nc(NCc2ccco2)n1 ... > 5 µM

So, CCN(CC)c1nc(C(N)=O)cc(-c2cnc(OC)nc2OC)n1 ? Its EC50 was > 5 µM

For COc1cccc(-c2cc(C(N)=O)nc(N3CCCCC3)n2)c1 the compound record lists EC50 as > 5 µM

Consider NC(=O)c1cc(-c2ccccc2)nc(N2CCOCC2)n1 . Its measured EC50 is > 5 µM
